Biological target: T1, Cynomolgus macaques TSLP recombinant protein (Cynomolgus macaques, UniProt Q969D9 29-159 (human entry), limits assumed, biotinylated in the blocking assays (sites not given))
T1 construct: also called cyTSLP; biotinylated Cynomolgus macaques TSLP protein
T1 chain: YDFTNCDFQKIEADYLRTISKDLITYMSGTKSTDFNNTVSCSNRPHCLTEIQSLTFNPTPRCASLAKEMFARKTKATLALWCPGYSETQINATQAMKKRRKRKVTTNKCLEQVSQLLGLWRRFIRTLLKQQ
Test: ELISA on coated cynomolgus TSLP;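 note: Read-out was TMB colorimetric signal measured as absorbance at 450 nm after 10 min development at 37 °C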
recorded_endpoint: binding result

binder="Ab11 (antibody, V domains shown, Humanized; also called h39G5VHv11/h39G5VKv1) VH: QVQLVQSGAEVKKPGSSVKVSCKASGYTFTDYWMHWVRQAPGQGLEWMGTIDNSDSDTSLNQKFQGRVTITADTSTSTAYMELSSLRSEDTAVYYCARSLDGYYDYWGQGTLVTVSS VL: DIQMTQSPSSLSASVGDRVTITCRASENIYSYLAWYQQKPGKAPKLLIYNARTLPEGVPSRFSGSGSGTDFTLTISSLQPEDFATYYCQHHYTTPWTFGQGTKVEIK" recorded_endpoint="binding result" observed_result=binds
binder="Ab7 (antibody, V domains shown, Humanized; also called h39G5VHv7/h39G5VKv1) VH: QVQLVQSGAEVKKPGSSVKVSCKASGYTFTDYWMHWVRQAPGQGLEWMGTIDNSDSDTSLNQKFQGRVTLTVDESSSTAYMELSSLRSEDTAVYYCARSLDGYYDYWGQGTLVTVSS VL: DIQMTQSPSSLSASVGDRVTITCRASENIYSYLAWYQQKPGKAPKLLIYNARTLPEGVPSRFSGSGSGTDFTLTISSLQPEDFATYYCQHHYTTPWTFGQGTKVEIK" recorded_endpoint="binding result" observed_result=binds
